Data origin, for the record: ChEMBL document CHEMBL4419121

target: G-protein coupled receptor 6 (Homo sapiens); experiment: Modulation activity at GPR6 receptor (unknown origin) expressed in CHO-K1 cells assessed as inhibition of constitutive cAMP activity incubated for 45 mins by Perkin Elmer Lance HTRF Ultrac-AMP assay; type: functional, cell-based
Sequence (P46095 whole entry): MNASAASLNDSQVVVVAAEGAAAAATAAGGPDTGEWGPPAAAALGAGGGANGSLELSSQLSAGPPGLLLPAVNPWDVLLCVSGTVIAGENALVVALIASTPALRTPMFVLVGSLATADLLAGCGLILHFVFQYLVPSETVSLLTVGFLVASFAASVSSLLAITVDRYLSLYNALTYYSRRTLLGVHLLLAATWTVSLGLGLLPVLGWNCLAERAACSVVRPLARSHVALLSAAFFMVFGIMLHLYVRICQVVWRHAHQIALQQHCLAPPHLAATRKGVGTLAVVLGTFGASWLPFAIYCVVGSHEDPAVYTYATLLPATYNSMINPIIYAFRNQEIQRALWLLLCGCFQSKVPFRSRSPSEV
metric: IC50 (nM)
Numbers only, in nM.

// each listed compound needs a value for IC50
1. CC(C)Nc1nc2c(nc1N1CCC(C(F)c3ccc(F)cc3F)CC1)CCN(C(=O)N(C)C)C2 (stereo not given)
2. COc1ccc(OC2CCN(c3nc4c(nc3NC(C)C)CCN(C)C4)CC2)c(F)c1
3. COc1ccc(OC2CCN(c3nc4c(nc3NC(C)C)CN(C(=O)N(C)C)CC4)CC2)c(F)c1
4. CC(=O)N1CCc2nc(N3CCC(C(F)c4ccc(F)cc4F)CC3)c(NC(C)C)nc2C1 (stereo not given)
5. CC1c2nc(N3CCC(Oc4ccc(F)cc4F)CC3)c(NCC(F)F)nc2CCN1C(=O)C1CC1 (stereo not given)

[19.7, 26.6, 35, 13.4, 126]
